What inhibition at 0.1 µM was measured for each of the following?
# target_or_system: mouse P2X1 receptor (Mus musculus)
# Construct: EST clones containing full-length cDNAs of mouse P2X1 (clone ID: 4189541) and human P2X7 receptor (clone ID: 5286944); host or cells: Xenopus oocytes (cRNA injected)
# procedure_text: Two-electrode voltage clamp, ATP-induced ion current in Xenopus oocytes expressing mouse P2X1
# Assay type: cell-based
# stated_conditions: Table 1; 100 nM compound; ion current induced by 2 μM ATP; mean ± SEM, n = 4; read-out: % inhibition mP2X1
Report field: quantity (unit follows the number).

Item Cc1nc(N=Nc2ccc(S(=O)(=O)O)cc2)c(CCC(=O)O)c(C(=O)O)c1O with mouse P2X1 receptor (Mus musculus) - inhibition at 0.1 µM?
57.6%

Item Cc1nc(N=Nc2cc(S(=O)(=O)O)ccc2S(=O)(=O)O)c(CCC(=O)O)c(C=O)c1O with mouse P2X1 receptor (Mus musculus) - inhibition at 0.1 µM?
58.6%

Item Cc1nc(N=Nc2ccc(C(=O)O)cc2)c(CCC(=O)O)c(C=O)c1O with mouse P2X1 receptor (Mus musculus) - inhibition at 0.1 µM?
48.5%

Item Cc1nc(N=Nc2ccc(S(=O)(=O)O)cc2)c(CCC(=O)O)c(C=O)c1O with mouse P2X1 receptor (Mus musculus) - inhibition at 0.1 µM?
41.8%

Item Cc1nc(N=Nc2ccc(C(=O)O)cc2)c(CCC(=O)O)c(C(=O)O)c1O with mouse P2X1 receptor (Mus musculus) - inhibition at 0.1 µM?
51.7%

Item Cc1nc(N=Nc2cc(S(=O)(=O)O)ccc2S(=O)(=O)O)c(CCC(=O)O)c(C(=O)O)c1O with mouse P2X1 receptor (Mus musculus) - inhibition at 0.1 µM?
60%

###

What inhibition at 10 µM was measured for each of the following?
# target_or_system: mouse P2X1 receptor (Mus musculus)
# Construct: EST clones containing full-length cDNAs of mouse P2X1 (clone ID: 4189541) and human P2X7 receptor (clone ID: 5286944); host or cells: Xenopus oocytes (cRNA injected)
# procedure_text: Two-electrode voltage clamp, ATP-induced ion current in Xenopus oocytes expressing mouse P2X1
# Assay type: cell-based
# stated_conditions: Table 2; 10 μM compound; ion current induced by 2 μM ATP; mean ± SEM, n = 4; read-out: % inhibition mP2X1
I only need the number, in %, no unit after it.

// query inhibition at 10 µM value for entry Cc1nc(Cc2cccc3ccccc23)c(C(=O)O)c(C(=O)O)c1O [Compound 50]
48.3

// query inhibition at 10 µM value for entry Cc1nc(Cc2ccccc2)c(C(=O)O)c(C(=O)O)c1O [Compound 35]
54.2

// query inhibition at 10 µM value for entry Cc1nc(C=Cc2ccccc2)c(C(=O)O)c(C(=O)O)c1O [Compound 38]
71.4

// query inhibition at 10 µM value for entry CC(=O)c1c(O)c(C)nc(/C=C/c2ccccc2)c1C(=O)O [Compound 47]
40.4

// query inhibition at 10 µM value for entry CC(=O)c1c(O)c(C)nc(Cc2ccccc2)c1C(=O)O [Compound 44]
46

###

# target_or_system: human P2X3 receptor (Homo sapiens, UniProt P56373)
# Construct: expressed in transfected cells; host or cells: Xenopus oocytes (cRNA injected); cDNA from the Max-Planck Institute laboratory (Dr. W. Stuhmer and Dr. F. Soto)
# Sequence (P56373 whole entry): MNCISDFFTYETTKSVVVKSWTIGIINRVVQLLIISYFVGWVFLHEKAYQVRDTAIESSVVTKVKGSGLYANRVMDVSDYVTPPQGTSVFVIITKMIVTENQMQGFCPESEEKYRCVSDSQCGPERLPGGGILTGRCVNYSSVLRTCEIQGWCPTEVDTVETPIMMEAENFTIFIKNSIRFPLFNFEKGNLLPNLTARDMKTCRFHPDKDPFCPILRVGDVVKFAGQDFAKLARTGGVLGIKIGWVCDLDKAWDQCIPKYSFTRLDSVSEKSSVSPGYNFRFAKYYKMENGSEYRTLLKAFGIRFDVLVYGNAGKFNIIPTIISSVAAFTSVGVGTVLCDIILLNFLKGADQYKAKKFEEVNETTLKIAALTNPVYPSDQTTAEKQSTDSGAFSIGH
# procedure_text: Two-electrode voltage clamp, ATP-induced ion current in Xenopus oocytes expressing human P2X3
# Format: cell-based
# stated_conditions: concentration-response curve, 2 μM ATP, mean of four observations; read-out: IC50 value
Cut-off 100 nM on IC50: below means yes, at or above means no.

Lab log: compare recorded IC50 with 100 nM; is it strictly lower for Cc1nc(CCc2ccc(C(=O)O)cc2)c(C(=O)O)c(C(=O)O)c1O ?
no

Lab log: compare recorded IC50 with 100 nM; is it strictly lower for Cc1nc(C=Cc2ccccc2)c(C(=O)O)c(C(=O)O)c1O ?
no

Lab log: compare recorded IC50 with 100 nM; is it strictly lower for Cc1nc(CCc2ccccc2)c(C(=O)O)c(C(=O)O)c1O ?
no

Lab log: compare recorded IC50 with 100 nM; is it strictly lower for Cc1nc(N=Nc2ccc(C(=O)O)cc2)c(CCC(=O)O)c(C=O)c1O ?
yes

Lab log: compare recorded IC50 with 100 nM; is it strictly lower for Cc1nc(N=Nc2cc(S(=O)(=O)O)ccc2S(=O)(=O)O)c(CCC(=O)O)c(C=O)c1O ?
no

###

# target_or_system: mouse P2X1 receptor (Mus musculus, UniProt P51576)
# Construct: EST clones containing full-length cDNAs of mouse P2X1 (clone ID: 4189541) and human P2X7 receptor (clone ID: 5286944); host or cells: Xenopus oocytes (cRNA injected)
# procedure_text: Two-electrode voltage clamp, ATP-induced ion current in Xenopus oocytes expressing mouse P2X1
# Format: cell-based
# stated_conditions: concentration-inhibitory curve, 2 μM ATP (FIG. 1B, FIG. 2A)
endpoint_label: Hill coefficient

// query Hill coefficient value for entry Cc1nc(C=Cc2ccccc2)c(C(=O)O)c(C(=O)O)c1O
−0.98±0.11

// query Hill coefficient value for entry Cc1nc(N=Nc2ccc(C(=O)O)cc2)c(CCC(=O)O)c(C=O)c1O
−1.20±0.45

// query Hill coefficient value for entry Cc1nc(CCc2ccc(C(=O)O)cc2)c(C(=O)O)c(C(=O)O)c1O
−1.00±0.09

// query Hill coefficient value for entry Cc1nc(N=Nc2cc(S(=O)(=O)O)ccc2S(=O)(=O)O)c(CCC(=O)O)c(C=O)c1O
−1.13±0.40

// query Hill coefficient value for entry Cc1nc(/N=N/c2ccc(C(=O)O)cc2)c(COP(=O)(O)O)c(C=O)c1O [MRS2159, reference compound]
−1.13±0.20

// query Hill coefficient value for entry Cc1nc(CCc2ccccc2)c(C(=O)O)c(C(=O)O)c1O
−1.03±0.21

###

# target_or_system: mouse P2X1 receptor (Mus musculus, UniProt P51576)
# Construct: EST clones containing full-length cDNAs of mouse P2X1 (clone ID: 4189541) and human P2X7 receptor (clone ID: 5286944); host or cells: Xenopus oocytes (cRNA injected)
# Sequence (P51576 1-399): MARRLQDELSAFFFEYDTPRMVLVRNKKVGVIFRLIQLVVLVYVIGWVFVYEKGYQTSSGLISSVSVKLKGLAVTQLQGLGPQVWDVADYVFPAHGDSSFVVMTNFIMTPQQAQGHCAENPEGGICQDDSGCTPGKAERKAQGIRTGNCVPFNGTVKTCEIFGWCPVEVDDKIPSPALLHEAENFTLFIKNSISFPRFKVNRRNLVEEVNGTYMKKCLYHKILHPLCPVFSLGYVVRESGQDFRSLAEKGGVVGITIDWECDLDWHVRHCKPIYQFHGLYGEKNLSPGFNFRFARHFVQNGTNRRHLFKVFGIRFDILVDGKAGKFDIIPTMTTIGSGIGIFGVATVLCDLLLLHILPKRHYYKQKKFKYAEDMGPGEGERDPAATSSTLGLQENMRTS
# procedure_text: Two-electrode voltage clamp, ATP-induced ion current in Xenopus oocytes expressing mouse P2X1
# Assay type: cell-based
# stated_conditions: concentration-inhibitory curve, 2 μM ATP; read-out: IC50 value (FIG. 1B)
What IC50 was measured for each of the following?
I only need the number, in nM, no unit after it.

// query IC50 value for entry Cc1nc(N=Nc2cc(S(=O)(=O)O)ccc2S(=O)(=O)O)c(CCC(=O)O)c(C=O)c1O
70.5

// query IC50 value for entry Cc1nc(N=Nc2ccc(C(=O)O)cc2)c(CCC(=O)O)c(C=O)c1O
130

###

# target_or_system: mouse P2X1 receptor (Mus musculus, UniProt P51576)
# Construct: EST clones containing full-length cDNAs of mouse P2X1 (clone ID: 4189541) and human P2X7 receptor (clone ID: 5286944); host or cells: Xenopus oocytes (cRNA injected)
# procedure_text: Two-electrode voltage clamp, ATP-induced ion current in Xenopus oocytes expressing mouse P2X1
# Assay type: cell-based
# stated_conditions: Table 2; 10 μM compound; ion current induced by 2 μM ATP; mean ± SEM, n = 4; read-out: % inhibition mP2X1
endpoint_label: inhibition at 10 µM (%)
I only need the number, in %, no unit after it.

Item COc1cccc(CCc2nc(C)c(O)c(C(=O)O)c2C(=O)O)c1 [Compound 40] with mouse P2X1 receptor (Mus musculus, UniProt P51576) - inhibition at 10 µM?
52.4

Item COc1ccc(CCc2nc(C)c(O)c(C=O)c2C(=O)O)cc1 [Compound 67] with mouse P2X1 receptor (Mus musculus, UniProt P51576) - inhibition at 10 µM?
52.8

Item COc1ccccc1CCc1nc(C)c(O)c(C(=O)O)c1C(=O)O [Compound 41] with mouse P2X1 receptor (Mus musculus, UniProt P51576) - inhibition at 10 µM?
49.8
